Below, each entry is listed alongside its reported melting point.

Below are worked cases with known answers.
COC(=O)Cc1cc(=O)oc2ccc(OC)cc12 ... 153 to 154 °C
COc1ccc2oc(=O)cc(CC(=O)N3CCCCC3)c2c1 ... 167 to 168 °C
COc1ccc2oc(=O)cc(CC(=O)Nc3ccc(OC)c(O)c3)c2c1 ... 173 to 174 °C
COc1ccc2c(CC(=O)Nc3ccccc3)cc(=O)oc2c1 ... 217 to 218 °C
COc1ccc2c(CC(=O)Nc3ccc(Br)cc3)cc(=O)oc2c1 ... 212 to 213 °C

Report melting point for `COc1ccc2c(CC(=O)Nc3ccc(OC)c(O)c3)cc(=O)oc2c1` 188 to 189 °C

Report melting point for `COc1ccc2c(CC(=O)N3CCCCC3)cc(=O)oc2c1` 135 to 136 °C

* * *

Below, each entry is listed alongside its reported pIC50.
Test system: MDA-MB-231 (triple-negative breast cancer cell line, TNBC)
Experiment Notes: MTT cytotoxicity assay, MDA-MB-231 cell line
Condition Description: human
API: returns pIC50 as number; meaning -log10 of concentration in mol/L.

COc1ccc2oc(=O)cc(CC(=O)Nc3ccc(OC)c(O)c3)c2c1 ... 5.67

Report pIC50 for `COc1ccc2c(CC(=O)Nc3ccccc3)cc(=O)oc2c1` 5.16

* * *

Below, each entry is listed alongside its reported melting point.

Report melting point for `COc1ccc2oc(=O)cc(CC(=O)O)c2c1` 178 to 179 °C

Report melting point for `COc1ccc2oc(=O)cc(CC(=O)Nc3ccccc3)c2c1` 219 to 220 °C

Report melting point for `COc1ccc2oc(=O)cc(CC(=O)Nc3ccc(Br)cc3)c2c1` 202 to 203 °C

Attribution: paper PMC7181245
